All values here come from ChEMBL document CHEMBL1961873.

Test system: Tyrosine-protein kinase ABL1 (Homo sapiens), P00519 [Y253F]
Settings: at 1 µM
Consider the following compounds; for each one, report its inhibition.
Answers are plain numbers, in %.

{"compound": "COc1cc2ncn(-c3cc(O[C@@H](C)c4ccccc4Cl)c(C(N)=O)s3)c2cc1OC", "quantity.unit": "%", "numeric.result": 25.9}
{"compound": "CCn1c(-c2nonc2N)nc2cncc(C(=O)N3CCNCC3)c21", "quantity.unit": "%", "numeric.result": 5.17}
{"compound": "CCn1c(-c2nonc2N)nc2cncc(C(=O)N3CC[C@H](N)C3)c21", "quantity.unit": "%", "numeric.result": 3.51}
{"compound": "NS(=O)(=O)c1cccc(-c2ccc3c(NC(=O)C4CC4)n[nH]c3c2)c1", "quantity.unit": "%", "numeric.result": 27}
{"compound": "Cc1ccc(NC(=O)c2ccnc(N3CCCC3)c2)cc1-c1ccc(C(=O)NCC2CC2)cc1", "quantity.unit": "%", "numeric.result": 3.85}

I would be grateful if you could provide inhibition for each of the following entries.
1. NS(=O)(=O)c1ccc(N/N=C2\C(=O)Nc3ccc(C(=O)NCCc4c[nH]cn4)cc32)cc1
2. CCN1CCC(CC(=O)Nc2n[nH]c3nc(-c4cccs4)c(Br)cc23)CC1
3. COc1ccc(COc2ccc(Cc3cnc(N)nc3N)cc2OC)cc1
4. Fc1cccc(COc2ccc(Nc3ncnc4cc(-c5ccc[nH]5)sc34)cc2Cl)c1
5. CS(=O)(=O)CCNCc1nc(-c2ccc3ncnc(Nc4ccc(F)c(Cl)c4)c3c2)cs1

[12.1, 5.45, 0.75, 8.02, 18.3]

// each compound listed below needs its inhibition
1. Cc1nnc(-c2ccc(C)c(-c3ccc(C(=O)Nc4cccc(C#N)c4)cc3)c2)o1
2. COc1cc2ncn(-c3cc(O[C@H](C)c4ccccc4Cl)c(C(N)=O)s3)c2cc1OC

1. 3.76
2. 47.1

Would you mind listing inhibition for each of the following compounds?
1. Nc1ncnc2occ(-c3ccc(NC(=O)Nc4cc(C(F)(F)F)cc(C(F)(F)F)c4)cc3)c12
2. CC1=C(C(=O)Nc2ccc3[nH]ncc3c2)C(c2ccc(F)cc2)NC(=O)N1 (stereo not drawn)

42.3
5.27

// each listed compound needs a value for inhibition
1. Cn1cc(C=C2C(=O)Nc3cccnc32)c2ccccc21
2. CCCN1CCC=C(c2ccc(Nc3nc(Nc4ccccc4C(N)=O)c4cc[nH]c4n3)c(C)c2)C1
3. COc1ccc(-c2nn3ncccc3c2-c2ccnc(Nc3ccc(Cl)c(C(F)(F)F)c3)n2)cc1
4. O=C(Nc1n[nH]c2nc(-c3ccco3)c(Br)cc12)C1CC1
5. N#Cc1c(NC(=O)c2cccc3ccccc23)sc2c1CCCC2
6. CS(=O)(=O)CCNCc1ccc(-c2ccc3ncnc(Nc4ccc(OCc5cccc(F)c5)c(C(F)(F)F)c4)c3c2)o1
7. COC(=O)Nc1nc2cc(Oc3cccc(NC(=O)Nc4cc(C(F)(F)F)ccc4F)c3)ccc2[nH]1
8. CN1CCC(C(=O)Nc2n[nH]c3nnc(-c4ccccc4)cc23)CC1

1: 48.7; 2: 7.55; 3: 6.35; 4: 11.5; 5: 5.73; 6: 2.89; 7: 19.8; 8: 5.41
